src = PubChem BioAssay (EPA / NIEHS)

Tested on: Thyroperoxidase (TPO), gene 54314
Test: CCTE_Simmons_AUR_rTPO: CCTE's Amplex UltraRed Assay for Thyroperoxidase (TPO) Inhibition, Simmons Lab (AID 2283662)
Method: CCTE_Simmons_AUR_rTPO is a biochemical, single-readout assay that uses microsomes from rat thyroid gland in a tissue-based cell-free assay. Measurements were taken 0.5 hour after chemical dosing in a 384-well plate.CCTE_Simmons_AUR_rTPO is the assay component measured from the CCTE_Simmons_AUR_rTPO assay. […]
Calls of active or inactive are those of the source. Rule for the calls: active = hit-call score of the fitted dose curve at least 0.9, where 1 is the maximum; inconclusive = response in the unintended direction; inactive = score below 0.9.
Labels: active, inactive

Molecule	Cat
O=C(CCCCCCCCc1cccnc1)N1CCC(C=C(c2ccccc2)c2ccccc2)CC1	active
CC(C)(O)c1coc(S(=O)(=O)NC(=O)Nc2c3c(cc4c2CCC4)CCC3)c1	active
Oc1ccc2c(c1)-c1ccccc1C2	active
O=c1n(CC2CO2)c(=O)n(CC2CO2)c(=O)n1CC1CO1 (stereo not drawn)	active
Nc1cccc(N)c1	active
CCCCCCc1ccc(O)cc1O	active
CCOc1cccc(-n2cc(C(=O)N3CCN(c4cc(C(=O)O)c5ccccc5c4)CC3)nc2-c2ccc(C)cc2)c1	active
CCOC(=O)c1ccc(C2CCC(NC[C@H](O)COc3ccc(O)c(NS(C)(=O)=O)c3)CC2)cc1 (stereo partly drawn)	active
Cn1cnc([N+](=O)[O-])c1Sc1ncnc2nc[nH]c12	active
Nc1ccc(Nc2ccccc2)cc1	active
CC(C)=CCCC(C)CCO (stereo not drawn)	inactive
C[C@](N)(Cc1ccc(O)c(O)c1)C(=O)O	active
CN(C)c1ccc(Cc2ccc(N(C)C)cc2)cc1	active
CCn1nc(Cc2ccccc2)cc1C1CCN(C[C@H]2C[C@H](N(C)[C@@H](C(=O)O)C(C)C)C[C@@H]2c2cccc(F)c2)CC1	active
CC/C(=C\C(=N/O)C(N)=O)C(C)[N+](=O)[O-] (stereo not drawn)	active
CC(C)=CCC/C(C)=C\CO	active
O=C(OC[C@H]1O[C@@H](OC(=O)c2cc(O)c(O)c(OC(=O)c3cc(O)c(O)c(O)c3)c2)[C@H](OC(=O)c2cc(O)c(O)c(OC(=O)c3cc(O)c(O)c(O)c3)c2)[C@@H](OC(=O)c2cc(O)c(O)c(OC(=O)c3cc(O)c(O)c(O)c3)c2)[C@@H]1OC(=O)c1cc(O)c(O)c(OC(=O)c2cc(O)c(O)c(O)c2)c1)c1cc(O)c(O)c(OC(=O)c2cc(O)c(O)c(O)c2)c1	active
Cc1ccc(N)cc1O	active
